Reference for the values: the supplement of paper PMC4862054

Give normalised viability for every item shown.
Test system: CAL-120
Experiment: normalised viability (% of control), CellTiter-Blue; higher = more viable cells (about 100 = DMSO control)
Details: 10 nM; incubation time: 72 h
One number for each entry, in %.

Consider the worked cases shown below.
structure=Cc1c(C(=O)Nc2ccc(N3C[C@@H](C)O[C@@H](C)C3)nc2)cccc1-c1ccc(OC(F)(F)F)cc1 numeric_value=99.9
structure=C[C@]12C=CC(=O)C=C1CC[C@@H]1[C@@H]2C(=O)C[C@@]2(C)[C@H]1CC[C@]2(O)C(=O)CO numeric_value=79.9
structure=Nc1nc(Cl)nc2c1ncn2[C@@H]1O[C@H](CO)[C@@H](O)[C@@H]1F numeric_value=89.1

# evaluate next
[Q] Output measured normalised viability for this item: NC(=O)c1cccc2cn(-c3ccc([C@@H]4CCCNC4)cc3)nc12
[A] 81
